Provenance of the data: Sander's compilation of Henry's law constants (doi:10.1016/j.watres.2017.04.074)

assay: Henry solubility constant Hcp at 298.15 K (mol/(m3 Pa)); details: reference: Chao et al. (2017)
Assignment: determine reported Henry solubility constant Hcp for the given molecules.
// no unit string in output, number only

Q: Would you kindly share the measured Henry solubility constant Hcp for Cc1ccccc1O [1-hydroxy-2-methylbenzene] ?
Result: 6.5

Q: Would you kindly share the measured Henry solubility constant Hcp for CCOC(=O)CC(SP(=S)(OC)OC)C(=O)OCC (centres undefined) ?
Result: 15

Q: Would you kindly share the measured Henry solubility constant Hcp for ClC1=C(Cl)[C@]2(Cl)[C@@H]3[C@@H]4C[C@@H]([C@H]5O[C@@H]45)[C@@H]3[C@@]1(Cl)C2(Cl)Cl ?
Result: 0.65

Q: Would you kindly share the measured Henry solubility constant Hcp for O=[N+]([O-])c1cccc2ccccc12 ?
Result: 4.6

====

assay: Henry solubility constant Hcp at 298.15 K (mol/(m3 Pa)); details: reference: Chao et al. (2017)
Experimental Endpoint: Henry solubility constant Hcp
// no unit string in output, number only

Q: Would you kindly share the measured Henry solubility constant Hcp for COP(=S)(OC)Oc1ccc([N+](=O)[O-])cc1 [methylparathion] ?
Result: 17

Q: Would you kindly share the measured Henry solubility constant Hcp for ClC1=C(Cl)[C@]2(Cl)[C@H]3[C@H]([C@@H]4C=C[C@H]3C4)[C@@]1(Cl)C2(Cl)Cl [aldrin] ?
Result: 0.26

Q: Would you kindly share the measured Henry solubility constant Hcp for Cc1ccccc1N [2-methylbenzenamine] ?
Result: 3

Q: Would you kindly share the measured Henry solubility constant Hcp for O=[N+]([O-])c1ccc(O)cc1 [4-nitrophenol] ?
Result: 14

Q: Would you kindly share the measured Henry solubility constant Hcp for OCc1ccccc1 [(hydroxymethyl)-benzene] ?
Result: 17

====

Assignment: determine reported Henry solubility constant Hcp for the given compounds.
experiment: Henry solubility constant Hcp at 298.15 K (mol/(m3 Pa)); conditions: reference: Chao et al. (2017)
// no unit string in output, number only

Q: Would you kindly share the measured Henry solubility constant Hcp for Nc1cccc(Cl)c1 ?
Result: 4.7

Q: Would you kindly share the measured Henry solubility constant Hcp for COC(=O)c1ccccc1C(=O)OC [dimethyl phthalate] ?
Result: 23

Q: Would you kindly share the measured Henry solubility constant Hcp for COP(=O)(OC)C(O)C(Cl)(Cl)Cl (configuration not stated) ?
Result: 55

Q: Would you kindly share the measured Henry solubility constant Hcp for O=[N+]([O-])c1cccc(Cl)c1 ?
Result: 1.4

Q: Would you kindly share the measured Henry solubility constant Hcp for CN(C)C(=O)Nc1ccc(Cl)c(Cl)c1 ?
Result: 35

Q: Would you kindly share the measured Henry solubility constant Hcp for O=[N+]([O-])c1ccccc1O ?
Result: 9.9

Q: Would you kindly share the measured Henry solubility constant Hcp for ClC1C(Cl)C(Cl)C(Cl)C(Cl)C1Cl (configuration not stated) ?
Result: 3.1

Q: Would you kindly share the measured Henry solubility constant Hcp for CCNc1nc(NC(C)C)nc(SC)n1 ?
Result: 21

Q: Would you kindly share the measured Henry solubility constant Hcp for O=[N+]([O-])c1ccc(O)c([N+](=O)[O-])c1 ?
Result: 970

Q: Would you kindly share the measured Henry solubility constant Hcp for CNC(=O)Oc1cccc2c1OC(C)(C)C2 ?
Result: 24

Q: Would you kindly share the measured Henry solubility constant Hcp for ClC1=C(Cl)[C@]2(Cl)[C@@H]3[C@H]4C[C@H]([C@@H]5O[C@H]45)[C@@H]3[C@@]1(Cl)C2(Cl)Cl ?
Result: 1.5

Q: Would you kindly share the measured Henry solubility constant Hcp for CC1CCCC(O)C1 (configuration not stated) ?
Result: 2.9

Q: Would you kindly share the measured Henry solubility constant Hcp for O=[N+]([O-])c1ccccc1 ?
Result: 0.67

Q: Would you kindly share the measured Henry solubility constant Hcp for O=[N+]([O-])c1ccc(Cl)cc1 ?
Result: 1.4

Q: Would you kindly share the measured Henry solubility constant Hcp for Cc1cccc([N+](=O)[O-])c1 ?
Result: 1.3

Q: Would you kindly share the measured Henry solubility constant Hcp for CNC(=O)ON=C(C)SC ?
Result: 200

Q: Would you kindly share the measured Henry solubility constant Hcp for Clc1ccc(C(c2ccc(Cl)cc2)C(Cl)Cl)cc1 ?
Result: 0.76

Q: Would you kindly share the measured Henry solubility constant Hcp for CC(C)CO ?
Result: 1.2

Q: Would you kindly share the measured Henry solubility constant Hcp for Cc1cccc(N)c1 ?
Result: 3.2

Q: Would you kindly share the measured Henry solubility constant Hcp for Nc1ccccc1 ?
Result: 4.4

Q: Would you kindly share the measured Henry solubility constant Hcp for ClC1=C(Cl)C2(Cl)C3C4OC4C(Cl)C3C1(Cl)C2(Cl)Cl (configuration not stated) [heptachlorepoxide] ?
Result: 0.96

Q: Would you kindly share the measured Henry solubility constant Hcp for Nc1ccccc1Cl ?
Result: 0.78
